Reported pIC50 is given for each of the following molecules.
System: Mycobacterium tuberculosis
Experiment: Antimycobacterial activity against Mycobacterium bovis BCG after 5 days by MTT assay
Format: functional, organism-based
Conditions: variant bovis BCG, 120 h
pIC50: −log10 of the molar value.

Example molecules with recorded pIC50:
COc1ncnc2c1c(-c1cccs1)cn2[C@@H]1O[C@H](CO)[C@@H](O)[C@H]1O    < 4.00
O=c1[nH]cnc2c1c(-c1ccco1)cn2[C@@H]1O[C@H](CO)[C@@H](O)[C@H]1O    < 4.00
COc1nc(N)nc2c1c(-c1ccccc1)cn2[C@@H]1O[C@H](CO)[C@@H](O)[C@H]1O    < 4.00
Cc1ncnc2c1c(I)cn2[C@@H]1O[C@H](CO)[C@@H](O)[C@H]1O    4.29
Nc1nc2c(c(-c3cccs3)cn2[C@@H]2O[C@H](CO)[C@@H](O)[C@H]2O)c(=O)[nH]1    < 4.00

# pIC50 of Nc1nc(N)c2c(-c3cc4ccccc4o3)cn([C@@H]3O[C@H](CO)[C@@H](O)[C@H]3O)c2n1 = 4.61

Looking up CNc1ncnc2c1c(-c1ccccc1)cn2[C@@H]1O[C@H](CO)[C@@H](O)[C@H]1O , I found its pIC50 recorded as < 4.00

pIC50 for COc1nc(N)nc2c1c(-c1ccoc1)cn2[C@@H]1O[C@H](CO)[C@@H](O)[C@H]1O is < 4.00

Field pIC50 (entry Cc1ncnc2c1c(Br)cn2[C@@H]1O[C@H](CO)[C@@H](O)[C@H]1O ) reads 4.68
